Data origin, for the record: ChEMBL document CHEMBL2311263

// values below are reported pIC50
# experimental_system: Mitogen-activated protein kinase 14 (Homo sapiens)
# Sequence (Q16539 whole entry): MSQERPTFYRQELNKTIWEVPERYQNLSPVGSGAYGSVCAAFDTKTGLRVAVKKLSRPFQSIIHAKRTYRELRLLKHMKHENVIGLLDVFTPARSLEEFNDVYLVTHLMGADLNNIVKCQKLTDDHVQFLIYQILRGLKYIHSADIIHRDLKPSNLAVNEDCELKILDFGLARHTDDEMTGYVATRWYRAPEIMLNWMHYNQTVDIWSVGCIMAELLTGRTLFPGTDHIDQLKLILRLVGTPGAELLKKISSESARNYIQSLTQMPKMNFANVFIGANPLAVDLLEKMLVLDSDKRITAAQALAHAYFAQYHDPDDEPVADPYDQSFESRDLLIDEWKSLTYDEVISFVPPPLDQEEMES
# experiment_description: Inhibition of p38alpha MAP kinase (unknown origin) by ELISA
pIC50: −log10 of the molar value.
endpoint_label: pIC50

> print(dat)
                                   compound                       experimental.system  endpoint.label  value.observed
1  O=C(Nc1ccc(F)c(Nc2ccc3c(c2)CCc2ccc(OCCO)cc2C3=O)c1)c1ccccc1  Mitogen-activated protein kinase 14 (Homo sapiens)           pIC50            8.70
2  O=C1c2ccc(Nc3ccc(F)c(NC(=O)C4CCOC4)c3)cc2CCc2ccc(OCCO)cc21 (centres undefined)  Mitogen-activated protein kinase 14 (Homo sapiens)           pIC50            7.70
3  CN(C)CCNC(=O)c1ccc2c(c1)C(=O)c1ccc(Nc3ccc(F)cc3F)cc1CC2  Mitogen-activated protein kinase 14 (Homo sapiens)           pIC50            8.52
4  Cc1cc(F)c(NC(=O)c2ccoc2)cc1Nc1ccc2c(c1)CCc1ccc(OCCN3CCOCC3)cc1C2=O  Mitogen-activated protein kinase 14 (Homo sapiens)           pIC50            9.00
5  CN1CCN(CCNC(=O)c2ccc3c(c2)C(=O)c2ccc(Nc4ccc(F)cc4F)cc2CC3)CC1  Mitogen-activated protein kinase 14 (Homo sapiens)           pIC50            8.00
6  O=C1c2ccc(Nc3ccc(F)cc3F)cc2CCc2ccc(C(=O)N3CCOCC3)cc21  Mitogen-activated protein kinase 14 (Homo sapiens)           pIC50            7.36
7  CC1(C)OC[C@H](COc2ccc3c(c2)C(=O)c2ccc(Nc4ccc(F)c(NC(=O)c5cccs5)c4)cc2CC3)O1  Mitogen-activated protein kinase 14 (Homo sapiens)           pIC50            8.70
8  O=C(NCCF)c1ccc2c(c1)C(=O)c1ccc(Nc3ccc(F)cc3F)cc1CC2  Mitogen-activated protein kinase 14 (Homo sapiens)           pIC50            8.70
9  Cc1cc(F)c(NC(=O)C2CCOC2)cc1Nc1ccc2c(c1)CCc1ccc(OCCN3CCOCC3)cc1C2=O (centres undefined)  Mitogen-activated protein kinase 14 (Homo sapiens)           pIC50            7.01

====

Each entry below carries its recorded IC50.
# experimental_system: Mitogen-activated protein kinase 14 (Homo sapiens)
# experiment_description: Inhibition of p38alpha MAP kinase (unknown origin) by ELISA
endpoint_label: IC50

> print(dat)
                                   compound  value.observed
1  O=C(Nc1cc(Nc2ccc3c(c2)CCc2ccc(OC[C@H](O)CO)cc2C3=O)ccc1F)c1cccs1            7 nM
2  O=C(NCC(O)CO)c1ccc2c(c1)C(=O)c1ccc(Nc3ccc(F)cc3F)cc1CC2 (centres undefined)            2 nM
3  CCOC(=O)c1ccc2c(c1)C(=O)c1ccc(Nc3ccc(F)cc3F)cc1CC2            3 nM
4  CCCOC(=O)c1ccc2c(c1)C(=O)c1ccc(Nc3ccc(F)cc3F)cc1CC2            8 nM
5  CS(=O)(=O)CCNC(=O)c1ccc2c(c1)C(=O)c1ccc(Nc3ccc(F)cc3F)cc1CC2            3 nM
6  CN1CCN(CCCNC(=O)c2ccc3c(c2)C(=O)c2ccc(Nc4ccc(F)cc4F)cc2CC3)CC1           10 nM
7  O=C(Nc1cc(Nc2ccc3c(c2)CCc2ccc(OCCN4CCOCC4)cc2C3=O)ccc1F)c1ccoc1            1 nM
8  C[C@@H](NC(=O)c1ccc2c(c1)C(=O)c1ccc(Nc3ccc(F)cc3F)cc1CC2)C1CCCCC1           89 nM
9  O=C(Nc1cc(Nc2ccc3c(c2)CCc2ccc(OCCN4CCOCC4)cc2C3=O)ccc1F)c1ccccc1            1 nM
